# protocol notes: Cytotoxicity in human BEAS2B cells after 48 hrs by Cell-titer Glo reagent based assay
# Design: species or system BEAS-2B
# condition info: read-out: LD50
quantity: CC50 at 48 h

INSERT INTO assay_data (smiles_notation, quantity, assay_value) VALUES
  ('COc1ccc2c(c1)C(=O)N1CCC[C@H]1c1c(C(=O)O)ncn1-2', 'CC50 at 48 h', '> 400 µM'),
  ('COc1ccc2c(c1)C(=O)N1CCC[C@H]1c1c(C(=O)OC(C(F)(F)F)C(F)(F)F)ncn1-2', 'CC50 at 48 h', '> 400 µM'),
  ('[2H]C([2H])([2H])Oc1ccc2c(c1)C(=O)N1CCC[C@H]1c1c(C(=O)O)ncn1-2', 'CC50 at 48 h', '> 400 µM'),
  ('CCSC(=O)c1ncn2c1[C@@H]1CCCN1C(=O)c1cc(OC)ccc1-2', 'CC50 at 48 h', '> 100 µM'),
  ('[2H]C([2H])([2H])Oc1ccc2c(c1)C(=O)N1CCC[C@H]1c1c(C(=O)N(C)C)ncn1-2', 'CC50 at 48 h', '> 400 µM');
